Source of measurements: ChEMBL document CHEMBL2331492

Answer each item with its documented EC50.
system: SF-268; experiment: Antiproliferative activity against human SF268 cells after 48 hrs; type: functional, cell-based; conditions: SF-268, 48 h
Express your answer in nM, writing the number without its unit.

Form: molecule = "CN(C)CCn1nc2c3c(c(NCCSCCO)ccc31)C(=O)c1ccncc1-2" ; EC50 = 660

Form: molecule = "CN(C)CCn1nc2c3c(c(NCC/C=C\CCN4CC4)ccc31)C(=O)c1ccncc1-2" ; EC50 = 1710

Form: molecule = "CN(C)CCn1nc2c3c(c(NCCC#CCCOS(C)(=O)=O)ccc31)C(=O)c1ccncc1-2" ; EC50 = 750

Form: molecule = "CN(C)CCn1nc2c3c(c(NCC/C=C/CCN4CC4)ccc31)C(=O)c1ccncc1-2" ; EC50 = 2990

Form: molecule = "CN(C)CCn1nc2c3c(c(NCCCCN4CC4)ccc31)C(=O)c1ccncc1-2" ; EC50 = 420

Form: molecule = "CN(C)CCn1nc2c3c(c(NCCOS(C)(=O)=O)ccc31)C(=O)c1ccncc1-2" ; EC50 = 390

Form: molecule = "CN(C)CCn1nc2c3c(c(NCC/C=C\CCOS(C)(=O)=O)ccc31)C(=O)c1ccncc1-2" ; EC50 = 3070

Form: molecule = "CN(C)CCSCCNc1ccc2c3c(nn2CCN(C)C)-c2cnccc2C(=O)c13" ; EC50 = 2370

Form: molecule = "CN(C)CCn1nc2c3c(c(NCCN4CC4)ccc31)C(=O)c1ccncc1-2" ; EC50 = 690

Form: molecule = "CN(C)CCn1nc2c3c(c(NCCCCc4ccc(N(CCCl)CCCl)cc4)ccc31)C(=O)c1ccncc1-2" ; EC50 = 4170

Form: molecule = "CN(C)CCn1nc2c3c(c(NCCC#CCCN4CC4)ccc31)C(=O)c1ccncc1-2" ; EC50 = 240

Form: molecule = "O=C1c2c(O)ccc(O)c2C(=O)c2c(NCCNCCO)ccc(NCCNCCO)c21" ; EC50 = 320

Form: molecule = "CN(C)CCn1nc2c3c(c(NCCC#CCCO)ccc31)C(=O)c1ccncc1-2" ; EC50 = 3450

Form: molecule = "CN(C)CCn1nc2c3c(c(NCCCCCCN4CC4)ccc31)C(=O)c1ccncc1-2" ; EC50 = 760

Form: molecule = "CN(C)CCn1nc2c3c(c(N(C)C)ccc31)C(=O)c1ccncc1-2" ; EC50 = 1340

Form: molecule = "CN(C)CCn1nc2c3c(c(NCCCCCCOS(C)(=O)=O)ccc31)C(=O)c1ccncc1-2" ; EC50 = 1370
